Measured pIC50 by item
target: UniProtKB P04629
Sequence (P04629 33-796): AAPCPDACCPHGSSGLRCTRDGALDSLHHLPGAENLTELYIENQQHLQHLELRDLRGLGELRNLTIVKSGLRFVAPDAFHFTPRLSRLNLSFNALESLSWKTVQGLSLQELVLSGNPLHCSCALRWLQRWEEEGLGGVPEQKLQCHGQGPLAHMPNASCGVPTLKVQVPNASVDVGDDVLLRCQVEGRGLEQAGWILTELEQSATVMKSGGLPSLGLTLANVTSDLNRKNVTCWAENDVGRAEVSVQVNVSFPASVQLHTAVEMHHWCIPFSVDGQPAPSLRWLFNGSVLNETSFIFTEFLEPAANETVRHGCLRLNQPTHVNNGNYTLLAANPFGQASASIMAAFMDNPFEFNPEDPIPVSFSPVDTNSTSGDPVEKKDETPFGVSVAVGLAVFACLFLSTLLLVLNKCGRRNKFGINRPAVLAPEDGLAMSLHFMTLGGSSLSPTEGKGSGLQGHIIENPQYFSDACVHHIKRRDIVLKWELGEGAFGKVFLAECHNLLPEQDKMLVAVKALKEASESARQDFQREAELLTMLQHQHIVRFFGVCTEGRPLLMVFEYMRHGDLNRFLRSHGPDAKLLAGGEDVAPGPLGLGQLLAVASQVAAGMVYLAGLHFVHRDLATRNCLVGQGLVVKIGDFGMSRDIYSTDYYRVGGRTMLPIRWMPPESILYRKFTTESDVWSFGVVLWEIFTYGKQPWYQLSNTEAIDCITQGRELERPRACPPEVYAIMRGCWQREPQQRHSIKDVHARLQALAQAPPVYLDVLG
pIC50: −log10 of the molar value.
measured attribute: pIC50

> print(dat)
                                    compound  number
 1  Cc1n[nH]c2cc(-c3ccc(C#N)c(N4CCN(C(=O)OC(C)(C)C)CC4)c3)cc(OC3CCOCC3)c12 [Example 139]    8.16
 2  CC(=O)C(=O)Nc1ccc(-c2cc(OC3CCOCC3)c3c(C)n[nH]c3c2)cc1N1CCN(C2CCCCC2)CC1 [Example 133]    7.80
 3  CNC(=O)c1ccc(-c2cc(OC3CCOCC3)c3c(C)n[nH]c3c2)cc1N1CCN(C(=O)CC2CC2)CC1 [Example 164]    8.06
 4  CNC(=O)c1ccc(-c2cc(OC3CCOCC3)c3c(N)n[nH]c3c2)cc1N1CCN(CC(F)(F)C(F)F)CC1 [Example 167]    7.94
 5  CC(=O)c1ccc(-c2cc(OC3CCOCC3)c3c(N)n[nH]c3c2)cc1N1CCN(c2ccccc2)CC1 [Example 13]    7.20
 6  CNC(=O)c1ccc(-c2cc(OC3CCOCC3)c3c(C)n[nH]c3c2)cc1N1CCN(C(=O)C2CC2)CC1 [Example 124]    7.72
 7  NC(=O)c1ccc(-c2cc(OC3CCOCC3)c3c(N)n[nH]c3c2)cc1N1CCN(CCc2ccccn2)CC1 [Example 10]    6.87
 8  Cc1n[nH]c2cc(-c3ccc(C(N)=O)c(N4CCN(C(=O)OC(C)(C)C)CC4)c3)cc(OC3CCOCC3)c12 [Example 140]    7.50
 9  CNC(=O)c1ccc(-c2cc(OC3CCOCC3)c3c(N)n[nH]c3c2)cc1N1CCN(c2ccccc2)CC1 [Example 30]    7.98
10  CC(=O)c1ccc(-c2cc(OC3CCOCC3)c3c(N)n[nH]c3c2)cc1N1CCN(c2ccc(F)cc2)CC1 [Example 17]    7.87
11  CC(=O)Nc1ccc(-c2cc(OC3CCOCC3)c3c(C)n[nH]c3c2)cc1N1CCN(C(=O)OC(C)(C)C)CC1 [Example 141]    8.42
12  CC(=O)Nc1ccc(-c2cc(OC3CCOCC3)c3c(C)n[nH]c3c2)cc1N1CCN(C(=O)OC(C)C)CC1 [Example 146]    8.35
13  CNC(=O)c1ccc(-c2cc(O[C@H](C)C(F)(F)F)c3c(N)n[nH]c3c2)cc1OCCOC1CCCCC1 [Example 105]    8.49
14  Nc1n[nH]c2cc(-c3ccc(C(=O)NC4CC4)c(N4CCN(c5ccccc5)CC4)c3)cc(OC3CCOCC3)c12 [Example 23]    7.82
15  CNC(=O)c1ccc(-c2cc(O[C@H](C)C(F)(F)F)c3c(N)n[nH]c3c2)cc1N1CCN(C2CCCC2)CC1 [Example 53]    7.35
16  NC(=O)c1ccc(-c2ccc3c(N)n[nH]c3c2)cc1N1CCN(C2CC2)CC1 [Example 88]    5.07
17  CC(=O)N1CCN(c2cc(-c3cc(OC4CCOCC4)c4c(N)n[nH]c4c3)ccc2C(N)=O)CC1 [Example 4]    6.83
